Biological target: T1, human PD-L1 (human, UniProt Q9NZQ7 19-290)
T1 construct: also called huPD-L1; CD274
T1 sequence (Q9NZQ7 19-290): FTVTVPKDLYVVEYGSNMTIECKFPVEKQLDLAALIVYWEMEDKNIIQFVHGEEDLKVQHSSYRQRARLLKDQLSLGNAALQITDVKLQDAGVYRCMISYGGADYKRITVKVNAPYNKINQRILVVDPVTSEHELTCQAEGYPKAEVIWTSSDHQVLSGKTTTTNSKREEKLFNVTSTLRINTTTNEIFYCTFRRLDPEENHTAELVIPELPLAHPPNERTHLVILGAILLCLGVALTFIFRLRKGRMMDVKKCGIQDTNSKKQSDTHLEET
Assay: flow cytometry; PD-L1 MFI over CD28 MFI
Listed below: Ratio of PDL1:CD28 values for each entry.
assay endpoint: Ratio of PDL1:CD28 (ratio)

binder	experimental result
CD80 E35D/D46V/M47L/V68M/L85Q/E88D IgV-Fc, EAAAK linker (Fc fusion, not shown: a dimerising Fc or GST) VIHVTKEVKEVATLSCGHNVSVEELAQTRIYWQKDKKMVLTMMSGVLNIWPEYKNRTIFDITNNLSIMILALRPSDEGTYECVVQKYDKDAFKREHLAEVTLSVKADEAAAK	44
CD80 E35D/M47V/N48K/V68M/K89N IgV-Fc, delta linker (Fc fusion, Fused directly to the Fc with no additional linker; also called E35D/M47V/N48K/V68M/K89N delta) VIHVTKEVKEVATLSCGHNVSVEELAQTRIYWQKDKKMVLTMMSGDVKIWPEYKNRTIFDITNNLSIMILALRPSDEGTYECVVLKYENDAFKREHLAEVTLSVKTHTCPPCPAPEAEGAPSVFLFPPKPKDTLMISRTPEVTCVVVDVSHEDPEVKFNWYVDGVEVHNAKTKPREEQYNSTYRVVSVLTVLHQDWLNGKEYKCKVSNKALPAPIEKTISKAKGQPREPQVYTLPPSREEMTKNQVSLTCLVKGFYPSDIAVEWESNGQPENNYKTTPPVLDSDGSFFLYSKLTVDKSRWQQGNVFSCSVMHEALHNHYTQKSLSLSPG	4
CD80 E35D/M47V/N48K/V68M/K89N IgV-Fc, EAAAK linker (Fc fusion, not shown: a dimerising Fc or GST) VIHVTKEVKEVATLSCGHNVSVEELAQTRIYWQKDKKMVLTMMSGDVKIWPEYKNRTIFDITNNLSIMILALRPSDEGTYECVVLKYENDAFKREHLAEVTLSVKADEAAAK	9
CD80 E35D/D46V/M47L/V68M/L85Q/E88D IgV-Fc, GS(G4S)5 linker (Fc fusion, not shown: a dimerising Fc or GST) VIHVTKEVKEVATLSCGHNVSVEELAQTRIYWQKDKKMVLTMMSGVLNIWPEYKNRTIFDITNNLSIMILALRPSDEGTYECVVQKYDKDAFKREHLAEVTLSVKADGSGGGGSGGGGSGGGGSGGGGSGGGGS	157
